# TARGET OR SYSTEM: T1, P2-AA-12HAA-D
# T1 chain: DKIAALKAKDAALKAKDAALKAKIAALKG
# METHOD NOTES: two-hybrid library CCmax;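 further: natural log of median RNA to DNA barcode read ratio; higher means stronger binding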
# MEASUREMENT CONDITIONS: mean of both orientations
REPORTED PROPERTY: interaction score
Format: numeric value only, no unit, no commentary.

Field: example entries. Status: answers known.
DEIAALEAEKAALEAEKAALEAEIAALEG [P1-AA-12HAA-K]	-0.759
DEIAALEAERAALEAERAALEAEIAALEG [P1-AA-12HAA-R]	-0.753
DEIAALEAESAALEAESAALEAEIAALEG [P1-AA-12HAA-S]	-0.855
DEIAALEAELAALEAELAALEAEIAALEG [P1-AA-12HAA-L]	1.26
DEIAALEAEYAALEAEYAALEAEIAALEG [P1-AA-12HAA-Y]	-0.93

Kindly consider the entry below.
interaction score recorded for this binder, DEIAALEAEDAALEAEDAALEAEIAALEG [P1-AA-12HAA-D] , is -1.35
